system: Escherichia coli NCTC 8196 (= EC); assay: MIC determination in microtiter plates, Escherichia coli; format: cell-based; details: Tables 2a/2b, 48 hours at 37° C., ≦20% growth, optical density 620 nm, some approximate values
PROPERTY_LABEL: MIC [ppm] EC (ppm)
Could you give me the number in ppm? Just the number is fine.

CCCCOc1ccc(CCN)cc1OCCCC [Compound 30]: 120
NCCc1ccc(OC2CCCC2)c(OC2CCCC2)c1 [Compound 41]: 120
CCC(CC)Oc1ccc(CCN)cc1OC(CC)CC [Compound 35]: 60
NCCc1cc(OCc2cccc(F)c2)c(OCc2cccc(F)c2)c(OCc2cccc(F)c2)c1 [Compound 67]: 7.5

Next compound, please.
Q) Fill in: MIC [ppm] EC of C=CCCCOc1ccc(CCN)cc1OCCCC=C [Compound 44] is ___
A) 60

----------
tested on: Escherichia coli NCTC 8196 (= EC); assay: MIC determination in microtiter plates, Escherichia coli; type: cell-based; conditions: Tables 2a/2b, 48 hours at 37° C., ≦20% growth, optical density 620 nm, some approximate values
Recorded MIC [ppm] EC, one value per entry.

CCCOc1ccc(CCN)cc1OCCC: >120 ppm
C=CCCOc1ccc(CCN)cc1OCCC=C: >120 ppm
N#Cc1ccc(COc2cc(CCN)cc(OCc3ccc(C#N)cc3)c2OCc2ccc(C#N)cc2)cc1: >120 ppm
NCCc1cc(OCC(=O)c2ccc(F)cc2)c(OCC(=O)c2ccc(F)cc2)c(OCC(=O)c2ccc(F)cc2)c1: 60 ppm
N#Cc1ccccc1COc1ccc(CCN)cc1OCc1ccccc1C#N: >120 ppm

Next molecule, please.
Q) Fill in: MIC [ppm] EC of C=CCOc1ccc(CCN)cc1OCC=C is ___
A) >120 ppm

----------
test system: Escherichia coli NCTC 8196 (= EC); assay: MIC determination in microtiter plates, Escherichia coli; assay type: cell-based; settings: Tables 2a/2b, 48 hours at 37° C., ≦20% growth, optical density 620 nm, some approximate values
Recorded MIC [ppm] EC, one value per entry.
Could you give me the number in ppm? Just the number is fine.

Q) Fill in: MIC [ppm] EC of N#Cc1ccc(COc2ccc(CCN)cc2OCc2ccc(C#N)cc2)cc1 is ___
A) 120

Q) Fill in: MIC [ppm] EC of NCCc1ccc(OCc2cccc(C(F)(F)F)c2)c(OCc2cccc(C(F)(F)F)c2)c1 is ___
A) 3.75

----------
Recorded MIC [ppm] EC, one value per entry.
system: Escherichia coli NCTC 8196 (= EC); assay: MIC determination in microtiter plates, Escherichia coli; type: cell-based; settings: Tables 2a/2b, 48 hours at 37° C., ≦20% growth, optical density 620 nm, some approximate values
Could you give me the number in ppm? Just the number is fine.

Q) Fill in: MIC [ppm] EC of Cc1ccc(C(=O)COc2cc(CCN)cc(OCC(=O)c3ccc(C)cc3)c2OCC(=O)c2ccc(C)cc2)cc1 is ___
A) 30

Q) Fill in: MIC [ppm] EC of NCCc1ccc(OCc2ccc(C(F)(F)F)cc2)c(OCc2ccc(C(F)(F)F)cc2)c1 is ___
A) 7.5

Q) Fill in: MIC [ppm] EC of CC(C)CCOc1cc(CCN)cc(OCCC(C)C)c1OCCC(C)C is ___
A) 7.5

Q) Fill in: MIC [ppm] EC of NCCc1ccc(OCc2ccccc2)c(OCc2ccccc2)c1 is ___
A) 28

----------
tested on: Escherichia coli NCTC 8196 (= EC); test: MIC determination in microtiter plates, Escherichia coli; type: cell-based; settings: Tables 2a/2b, 48 hours at 37° C., ≦20% growth, optical density 620 nm, some approximate values
PROPERTY_LABEL: MIC [ppm] EC (ppm)
Could you give me the number in ppm? Just the number is fine.

Past entries and their recorded results:
NCCc1ccc(OCc2cccc(F)c2)c(OCc2cccc(F)c2)c1: 7.5
Cc1cccc(COc2ccc(CCN)cc2OCc2cccc(C)c2)c1: 15
NCCc1ccc(OCc2ccccc2F)c(OCc2ccccc2F)c1: 30

Next compound, please.
Q) Fill in: MIC [ppm] EC of CCC(C)Oc1cc(CCN)cc(OC(C)CC)c1OC(C)CC (centres unmarked) is ___
A) 30

----------
system: Escherichia coli NCTC 8196 (= EC); assay: MIC determination in microtiter plates, Escherichia coli; type: cell-based; settings: Tables 2a/2b, 48 hours at 37° C., ≦20% growth, optical density 620 nm, some approximate values
PROPERTY_LABEL: MIC [ppm] EC (ppm)
Could you give me the number in ppm? Just the number is fine.

CC(C)CCOc1ccc(CCN)cc1OCCC(C)C: 15
C=CCCOc1cc(CCN)cc(OCCC=C)c1OCCC=C: 60

Next compound, please.
Q) Fill in: MIC [ppm] EC of Cc1ccc(COc2ccc(CCN)cc2OCc2ccc(C)cc2)cc1 is ___
A) 7.5

----------
tested on: Escherichia coli NCTC 8196 (= EC); assay: MIC determination in microtiter plates, Escherichia coli; assay type: cell-based; conditions: Tables 2a/2b, 48 hours at 37° C., ≦20% growth, optical density 620 nm, some approximate values
PROPERTY_LABEL: MIC [ppm] EC

CC(C)OC(=O)COc1cc(CCN)cc(OCC(=O)OC(C)C)c1OCC(=O)OC(C)C [Compound 75]: >120 ppm
COc1cccc(COc2ccc(CCN)cc2OCc2cccc(OC)c2)c1 [Compound 4]: 60 ppm
CCCOC(=O)COc1ccc(CCN)cc1OCC(=O)OCCC [Compound 23]: >120 ppm
NCCc1ccc(OCc2ccccc2C(F)(F)F)c(OCc2ccccc2C(F)(F)F)c1 [Compound 8]: 7.5 ppm
NCCc1ccc(OCc2ccc3ccccc3c2)c(OCc2ccc3ccccc3c2)c1 [Compound 20]: >120 ppm
N#Cc1cccc(COc2ccc(CCN)cc2OCc2cccc(C#N)c2)c1 [Compound 12]: 120 ppm
CC(C)(C)c1ccc(COc2ccc(CCN)cc2OCc2ccc(C(C)(C)C)cc2)cc1 [Compound 18]: >60 ppm

Q) Query MIC [ppm] EC on Escherichia coli NCTC 8196 (= EC) for CC(C)(C)c1ccc(COc2cc(CCN)cc(OCc3ccc(C(C)(C)C)cc3)c2OCc2ccc(C(C)(C)C)cc2)cc1 [Compound 69]
A) >120 ppm

----------
Recorded MIC [ppm] EC, one value per entry.
system: Escherichia coli NCTC 8196 (= EC); assay: MIC determination in microtiter plates, Escherichia coli; format: cell-based; settings: Tables 2a/2b, 48 hours at 37° C., ≦20% growth, optical density 620 nm, some approximate values

CCOC(=O)CCCCOc1cc(CCN)cc(OCCCCC(=O)OCC)c1OCCCCC(=O)OCC: >120 ppm
CCOC(=O)COc1ccc(CCN)cc1OCC(=O)OCC: >120 ppm

Q) Fill in: MIC [ppm] EC of CCCCCCCCOc1ccc(CCN)cc1OCCCCCCCC is ___
A) >120 ppm

----------
Recorded MIC [ppm] EC, one value per entry.
test system: Escherichia coli NCTC 8196 (= EC); assay: MIC determination in microtiter plates, Escherichia coli; type: cell-based; conditions: Tables 2a/2b, 48 hours at 37° C., ≦20% growth, optical density 620 nm, some approximate values
Could you give me the number in ppm? Just the number is fine.

CCCOc1cc(CCN)cc(OCCC)c1OCCC [Compound 80]: 120

Next compound, please.
Q) Query MIC [ppm] EC on Escherichia coli NCTC 8196 (= EC) for CCCCCCCOc1ccc(CCN)cc1OCCCCCCC [Compound 37]
A) 30
